target: PAR2 (HT-29 cells, trypsin activation) (Homo sapiens, UniProt P55085); construct: host or cells: HT-29 cells; assay: Ca FLIPR TETRA assay, ANTAGONIST mode, stimulation with 3.1 U/mL trypsin; format: cell-based; conditions: HT-29 cells, antagonist mode, stimulation with 3.1 U/mL trypsin
Sequence (P55085 26-397): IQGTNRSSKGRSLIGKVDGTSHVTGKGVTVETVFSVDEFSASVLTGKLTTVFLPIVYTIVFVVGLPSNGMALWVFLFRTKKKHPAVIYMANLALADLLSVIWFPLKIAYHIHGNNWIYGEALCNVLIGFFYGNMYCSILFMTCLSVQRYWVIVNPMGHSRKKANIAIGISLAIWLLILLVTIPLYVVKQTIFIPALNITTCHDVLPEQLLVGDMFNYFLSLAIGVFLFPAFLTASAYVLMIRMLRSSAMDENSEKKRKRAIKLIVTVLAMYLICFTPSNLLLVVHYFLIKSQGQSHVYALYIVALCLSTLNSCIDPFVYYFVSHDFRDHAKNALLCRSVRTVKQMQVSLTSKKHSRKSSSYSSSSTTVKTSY
pIC50: −log10 of the molar value.
Cut-off 8 on pIC50, inclusive. At or above means t; below means f.

Completed entries (count: 3):
[
  {
    "Compound": "Cc1ccc(-c2cc(C(C)(C)C)c3nc(C(=O)N4CCN(C(=O)c5cnc(C)[nH]5)CC4(C)C)cn3n2)cc1",
    "Assigned Category": "t"
  },
  {
    "Compound": "CC(C)(C)c1cc(-c2ccc(F)cc2)nn2cc(C(=O)N3CCN(C(=O)C4CC(O)(C(F)(F)F)C4)CC3(C)C)nc12 (stereo not shown)",
    "Assigned Category": "t"
  },
  {
    "Compound": "CC(C)(F)c1cc(-c2ccc(F)cc2)nn2cc(C(=O)N3CCNC(=O)C3(C)C)nc12",
    "Assigned Category": "f"
  }
]

Query block: Could you tell me if the measured pIC50 of `CC(C)(C)c1cc(-c2ccc(N=[N+]=[N-])cc2)nn2cc(C(=O)N3CCNC(=O)C3(C)C)nc12` reaches 8 or more?
Result block: f

Query block: Could you tell me if the measured pIC50 of `CC(C)(C)c1cc(-c2ccc(F)cc2)nn2cc(C(=O)N3CCN(C4COC4)C(=O)C3(C)C)nc12` reaches 8 or more?
Result block: t

Query block: Could you tell me if the measured pIC50 of `CC(C)(C)c1cc(C2CCC(F)(F)CC2)nn2cc(C(=O)N3CCNC(=O)C3(C)C)nc12` reaches 8 or more?
Result block: f
